Some compounds, each annotated with its measured TGI.
System: SF-268 CNS
methodSummary: NCI tumour cell line growth inhibition, 48 h
measurementLabel: TGI

1. Nc1cccnc1NCC1(CO)CCCC1 = > 100 µM
2. O=c1[nH]c(=O)n(CCOc2ccccc2)cc1Nc1ccccc1 = > 100 µM
3. C=C1[C@H](OC(C)=O)[C@H]2[C@@H](OC(C)=O)[C@@H](C)C[C@]2(C)C(=O)[C@H](C)/C=C/C(C)(C)C(=O)[C@H](OCC(C)C)[C@H]1OC(C)=O = > 25 µM
4. C#CCNC(=O)c1cccc2c1cc(C)n2-c1nc2c(c(NCc3ccccc3)n1)CCCC2 = 0.0771 µM
5. O=C1N=C(SC2OC(CO)C(O)C(O)C2O)S/C1=C\c1ccccc1 (centres undefined) = > 100 µM
6. O=C(O)C(CS)Nc1c2ccccc2nc2ccccc12 (centres undefined) = > 100 µM
7. O=C1CCC(N2C(=O)c3ccccc3C2=O)C(=O)N1CO (centres undefined) = > 100 µM
8. COc1ccccc1NC(=S)Nc1cc(C)cc(C)n1 = > 100 µM
9. O=C(CCc1nnc2sc(-c3ccc(Cl)cc3Cl)nn12)c1nc2ccccc2[nH]1 = 2.85 µM
10. C[N+]1=C(/C=C/c2ccc(O)c3ncccc23)C(C)(C)c2ccccc21 = 14.1 µM
11. O=c1cc(-c2ccccc2)oc2cc(OC/C(=N/O)c3ccccc3)ccc12 = 31 µM
12. COc1ccc(C(=O)c2sc(N(C)C)nc2-c2ccccc2)cc1 = > 100 µM
13. CCOCc1c(C)cc(C)c(C2C(C(=O)c3ccccc3)N3c4ccccc4C=CC3C2(C#N)C(=O)OCC)c1C (centres undefined) = > 100 µM
14. CCCCCCCCCCCCN(CC(O)C(O)C(OC1OC(CO)C(O)C(O)C1O)C(O)CO)C(=O)CCCCCCCCCCC (centres undefined) = 43.6 µM
15. Cc1cc(N(CCC#N)CCC#N)ccc1/C=C1\N=C(c2cc([N+](=O)[O-])ccc2Cl)N(c2cccc(Cl)c2)C1=O = > 100 µM
16. Cc1ccc([N+](=O)[O-])cc1S(=O)(=O)Nc1ccc(C2=NN(c3ccc([N+](=O)[O-])cc3[N+](=O)[O-])C(c3cccs3)C2)cc1 (centres undefined) = 69.9 µM
17. CCOC(=O)c1oc2cc3c(c4c2c1-c1ccccc1N4C)C=CC(C)(C)O3 = > 49.3 µM
18. O=C(N/C(=C\c1cccc([N+](=O)[O-])c1)c1nc2ccc([N+](=O)[O-])cc2[nH]1)c1ccccc1 = > 100 µM
19. Cc1c(C(=O)C/C(=N/NC(=O)C[N+](C)(C)C)C(=O)Nc2ccc(Cl)cc2)[n+](=O)c2ccccc2n1O = > 100 µM

====

Tested on: PC-3 prostate
methodSummary: NCI tumour cell line growth inhibition, 48 h; in the data active = GI50 below about 0.43 µM; inactive = the rest
Classes used: 1 (yes) for active, 0 (no) for inactive

1. Cc1ccc(C(=O)NC(C)C)cc1-c1ccc(C(=O)NCC2CC2)cc1 = 0 (no)
2. Nc1nc2c(nnn2C2CC(O)C(CO)O2)c(=O)[nH]1 (stereo not given) = 0 (no)
3. COC(=O)Nc1nc2ccc(Oc3ccc(NC(=O)Nc4cc(C(F)(F)F)ccc4F)cc3)cc2s1 = 0 (no)
4. CS(=O)(=O)c1ccc(-n2nc(C(F)(F)F)cc2OC2CCCC2)cc1 = 0 (no)
5. CCCCCCCC(=O)OCC/C=C/C1OC1C1OC(=O)/C=C\C=C\c2nc(oc2C)/C=C(/C)CCC2OC2C1OC(=O)NC(C)=O (stereo not given) = 1 (yes)
6. Nc1nccc(-c2c(-c3ccc(F)cc3)ncn2C2CCC(O)CC2)n1 (stereo not given) = 0 (no)
7. Cc1ccc(C(=O)N(CCCN)C(c2oc3cc(Cl)ccc3c(=O)c2Cc2ccccc2)C(C)C)cc1 (stereo not given) = 1 (yes)
8. COc1ccc2c(c1)C(=O)c1c-2n(CCCn2ccnc2)c(=O)c2cc([N+](=O)[O-])ccc12 = 1 (yes)
9. COc1cc[nH]c1/C=C1\C(=O)Nc2ccc(F)c(C#CC3(O)CCNCC3)c21 = 1 (yes)
10. CC1(C)OC2=C(CC1Br)C(=O)C(=O)c1ccccc12 (stereo not given) = 0 (no)
11. O=C1Nc2ccccc2C1(c1ccc(O)cc1)c1ccc(O)cc1 = 0 (no)
12. Nc1nc(N(Cc2ccccc2)c2ccccc2)c2cn[nH]c2n1 = 0 (no)
13. COc1ccc(-c2onc(N)c2-c2cc(OC)c3c(c2)OCO3)cc1 = 0 (no)
14. CC[C@@]1(c2ccccc2)C2=C(CC(C)(C)CC2=O)Nc2[nH]ncc21 = 0 (no)
15. OCCCNc1nc(=S)[nH]c2[nH]ncc12 = 0 (no)
16. Cc1ccc2c(c1)Sc1c(ccc3ccccc13)N2 = 0 (no)
17. O=C(O)CCNC1CCCCC1 = 0 (no)
18. O=c1cc(-c2ccccc2)oc2cc(OC/C(=N/O)c3ccccc3)ccc12 = 0 (no)
19. O=C(Nc1ccncc1)C(=O)c1cn(S(=O)(=O)c2cccc(F)c2)c2ccccc12 = 0 (no)
20. O=C1C(Cl)=C(NCCN2CCOCC2)C(=O)c2ncccc21 = 0 (no)

Sourced from PubChem BioAssay (NCI)
